Listed compounds paired with reported kinase still bound, per cent of control
- study system: RPS6KA3 KD1 (human) (UniProt P51812)
- Sequence (P51812 whole entry, looked up): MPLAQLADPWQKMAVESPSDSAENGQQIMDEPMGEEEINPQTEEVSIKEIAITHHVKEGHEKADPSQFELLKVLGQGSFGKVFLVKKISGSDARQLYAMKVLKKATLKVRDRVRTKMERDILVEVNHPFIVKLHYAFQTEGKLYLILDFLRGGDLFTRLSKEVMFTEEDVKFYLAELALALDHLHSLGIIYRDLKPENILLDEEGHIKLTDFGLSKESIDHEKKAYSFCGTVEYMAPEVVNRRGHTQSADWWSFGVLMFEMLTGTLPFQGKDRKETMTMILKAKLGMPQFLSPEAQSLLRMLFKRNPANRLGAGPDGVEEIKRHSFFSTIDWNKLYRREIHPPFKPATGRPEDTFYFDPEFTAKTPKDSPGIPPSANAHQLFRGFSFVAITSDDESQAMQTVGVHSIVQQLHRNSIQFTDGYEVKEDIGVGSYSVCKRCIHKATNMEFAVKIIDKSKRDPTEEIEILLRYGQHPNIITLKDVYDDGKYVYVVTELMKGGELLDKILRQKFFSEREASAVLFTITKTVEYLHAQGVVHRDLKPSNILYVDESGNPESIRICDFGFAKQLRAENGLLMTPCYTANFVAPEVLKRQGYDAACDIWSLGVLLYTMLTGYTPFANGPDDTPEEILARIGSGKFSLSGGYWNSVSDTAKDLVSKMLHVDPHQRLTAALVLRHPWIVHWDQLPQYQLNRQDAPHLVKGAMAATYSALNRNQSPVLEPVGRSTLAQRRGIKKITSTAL
- test method notes: KINOMEscan competition binding
- particulars: compound 10.0 µM
Provide the reading as a plain figure in %.

[ask] Output measured kinase still bound, per cent of control for this item: COc1cc2ncnc(Nc3cccc(Cl)c3)c2cc1OC
[reply] 67

[ask] Output measured kinase still bound, per cent of control for this item: COc1ccc(N(C(=O)Oc2cc(C(=O)Nc3cccc(C(F)(F)F)c3)ccc2C)c2ccnc(Nc3ccc(N4CCN(C)CC4)cc3)n2)c(OC)c1
[reply] 100

[ask] Output measured kinase still bound, per cent of control for this item: CCN(CCO)CCCOc1ccc2c(Nc3cc(CC(=O)Nc4cccc(F)c4)[nH]n3)ncnc2c1
[reply] 80
